Record form. Attribute: Ratio CC50/EC50. Fill in for each entry.
assay: Selectivity index, ratio of CC50 for human P3HR1 cells to EC50 for EBV infected in human P3HR1 cells; parameters: species or system P3HR-1
When you answer, write just the number.

State the recorded Ratio CC50/EC50 for this entry: C=CCc1cc(OC)c(O[C@H](COC(C)=O)[C@H](O)c2cc(OC)c(OC)c(OC)c2)c(OC)c1 3.7

State the recorded Ratio CC50/EC50 for this entry: COc1ccc([C@H](O)[C@@H](C)Oc2ccc([C@H]3O[C@H](c4ccc5c(c4)OCO5)[C@H](C)[C@H]3C)cc2OC)cc1OC 41.1

State the recorded Ratio CC50/EC50 for this entry: COc1ccc([C@@H](O)[C@@H](C)Oc2ccc([C@H]3O[C@@]4(c5ccc(O[C@H](C)[C@H](O)c6ccc(OC)c(OC)c6)c(OC)c5)O[C@@]4(C)[C@H]3C)cc2OC)cc1OC (relative stereo) 4.4

State the recorded Ratio CC50/EC50 for this entry: C=CCc1cc(OC)c(O[C@H](C)[C@H](OC(C)=O)c2cc(OC)c(OC)c(OC)c2)c(OC)c1 4

State the recorded Ratio CC50/EC50 for this entry: COc1cc([C@H]2O[C@@H](c3ccc(OC)c(OC)c3)[C@@H](C)[C@H]2C)ccc1O 2.3

State the recorded Ratio CC50/EC50 for this entry: COc1ccc([C@@H](O)[C@@H](C)Oc2ccc([C@H]3O[C@H](c4ccc(OC)c(OC)c4)[C@H](C)[C@H]3C)cc2OC)cc1OC 65

State the recorded Ratio CC50/EC50 for this entry: C/C=C/c1cc(OC)c(O[C@H](C)[C@H](O)c2cc(OC)c3c(c2)OCO3)c(OC)c1 4.2

State the recorded Ratio CC50/EC50 for this entry: COc1cc([C@@H](O)[C@@H](C)Oc2ccc([C@H]3O[C@H](c4ccc(O[C@H](C)[C@H](O)c5ccc(OC)c(OC)c5)c(OC)c4)[C@H](C)[C@H]3C)cc2OC)ccc1O 9.2

State the recorded Ratio CC50/EC50 for this entry: COc1cc([C@@H](O)[C@@H](C)Oc2ccc([C@H]3O[C@H](c4ccc(O[C@H](C)[C@H](O)c5ccc6c(c5)OCO6)c(OC)c4)[C@H](C)[C@H]3C)cc2OC)ccc1O [4-O-DEMETHYLMANASSANTIN B] 20.2

State the recorded Ratio CC50/EC50 for this entry: C/C=C/c1cc(OC)c(O[C@H](C)[C@H](OC(C)=O)c2cc(OC)c(OC)c(OC)c2)c(OC)c1 3

State the recorded Ratio CC50/EC50 for this entry: C/C=C/c1cc(OC)c(O[C@@H](C)[C@@H](O)c2cc(OC)c(OC)c(OC)c2)c(OC)c1 3.2

State the recorded Ratio CC50/EC50 for this entry: COc1cc([C@@H](O)[C@@H](C)Oc2ccc([C@@H]3O[C@H](c4ccc(O)c(OC)c4)[C@H](C)[C@H]3C)cc2OC)ccc1O 3.3

State the recorded Ratio CC50/EC50 for this entry: COc1ccc([C@H]2O[C@@H](c3cc(OC)c(OC)c(OC)c3)[C@H](C)[C@@H]2C)cc1OC 2.5

###

experiment: Cytotoxicity against human P3HR1 cells assessed as cell viability after 2 days by trypan blue staining-based light microscopy; parameters: species or system P3HR-1
measuredAttribute: CC50 at 48 h

State the recorded CC50 at 48 h for this entry: COc1cc([C@H]2O[C@@H](c3cc(OC)c(OC)c(OC)c3)[C@H](C)[C@@H]2C)cc(O)c1OC 32 µM

State the recorded CC50 at 48 h for this entry: COc1ccc([C@@H](O)[C@@H](C)Oc2ccc([C@H]3O[C@H](c4ccc(O[C@H](C)[C@H](O)c5ccc6c(c5)OCO6)c(OC)c4)[C@H](C)[C@H]3C)cc2OC)cc1O 26.5 µM

State the recorded CC50 at 48 h for this entry: C/C=C/c1cc(OC)c(O[C@H](C)[C@H](OC(C)=O)c2cc(OC)c(OC)c(OC)c2)c(OC)c1 76.8 µM

State the recorded CC50 at 48 h for this entry: COc1ccc([C@H]2O[C@@H](c3ccc(OC)c(OC)c3)[C@@H](C)[C@H]2C)cc1OC 59.8 µM

State the recorded CC50 at 48 h for this entry: COc1ccc([C@@H](O)[C@@H](C)Oc2ccc([C@H]3O[C@@]4(c5ccc(O[C@H](C)[C@H](O)c6ccc(OC)c(OC)c6)c(OC)c5)O[C@@]4(C)[C@H]3C)cc2OC)cc1OC (relative stereo) 64.8 µM

State the recorded CC50 at 48 h for this entry: COc1cc([C@@H](O)[C@@H](C)Oc2ccc([C@@H]3O[C@H](c4ccc(O)c(OC)c4)[C@H](C)[C@H]3C)cc2OC)ccc1O 23.2 µM

State the recorded CC50 at 48 h for this entry: COc1ccc([C@@H](O)[C@@H](C)Oc2ccc([C@H]3O[C@H](c4ccc(O[C@H](C)[C@H](O)c5ccc6c(c5)OCO6)c(OC)c4)[C@H](C)[C@H]3C)cc2OC)cc1OC [MANASSANTIN B] > 200 µM

State the recorded CC50 at 48 h for this entry: C/C=C/c1cc(OC)c(O[C@@H](C)[C@@H](O)c2cc(OC)c(OC)c(OC)c2)c(OC)c1 77.3 µM

State the recorded CC50 at 48 h for this entry: COc1cc([C@@H](O)[C@@H](C)Oc2ccc([C@H]3O[C@H](c4ccc(O[C@H](C)[C@H](O)c5ccc(OC)c(OC)c5)c(OC)c4)[C@H](C)[C@H]3C)cc2OC)ccc1O 69.5 µM

State the recorded CC50 at 48 h for this entry: COc1cc([C@@H](O)[C@@H](C)Oc2ccc([C@H]3O[C@H](c4ccc(O[C@H](C)[C@H](O)c5ccc6c(c5)OCO6)c(OC)c4)[C@H](C)[C@H]3C)cc2OC)ccc1O [4-O-DEMETHYLMANASSANTIN B] 70.8 µM

State the recorded CC50 at 48 h for this entry: COc1ccc([C@@H](O)[C@@H](C)Oc2ccc(C(=O)[C@H](C)[C@H](C)C(=O)c3ccc(O[C@H](C)[C@H](O)c4ccc5c(c4)OCO5)c(OC)c3)cc2OC)cc1OC > 200 µM

State the recorded CC50 at 48 h for this entry: COc1ccc([C@H]2O[C@@H](c3cc(OC)c(O)c(OC)c3)[C@H](C)[C@@H]2C)cc1OC 100 µM

State the recorded CC50 at 48 h for this entry: C/C=C/c1ccc(O[C@H](C)[C@H](O)c2ccc(O)c(OC)c2)c(OC)c1 61.3 µM

State the recorded CC50 at 48 h for this entry: C=CCc1cc(OC)c(O[C@H](C)[C@H](O)c2cc(OC)c3c(c2)OCO3)c(OC)c1 50.6 µM

State the recorded CC50 at 48 h for this entry: C=CCc1cc(OC)c(O[C@H](C)[C@H](OC(C)=O)c2cc(OC)c(OC)c(OC)c2)c(OC)c1 85 µM

State the recorded CC50 at 48 h for this entry: COc1cc([C@H]2O[C@@H](c3cc(OC)c(OC)c(OC)c3)[C@H](C)[C@@H]2C)cc(OC)c1O 65.8 µM

State the recorded CC50 at 48 h for this entry: C=CCc1cc(OC)c(O[C@H](C)C(=O)c2cc(OC)c(OC)c(OC)c2)c(OC)c1 > 200 µM

State the recorded CC50 at 48 h for this entry: COc1cc([C@H]2O[C@@H](c3cc(OC)c4c(c3)OCO4)[C@H](C)[C@@H]2C)cc(OC)c1OC 55 µM

State the recorded CC50 at 48 h for this entry: COc1ccc([C@H](O)[C@@H](C)Oc2ccc([C@H]3O[C@H](c4ccc5c(c4)OCO5)[C@H](C)[C@H]3C)cc2OC)cc1OC 45 µM

State the recorded CC50 at 48 h for this entry: COc1cc([C@H]2O[C@@H](c3cc(OC)c(OC)c(OC)c3)[C@H](C)[C@H]2C)cc(OC)c1OC [EPIGRANDISIN] > 200 µM

State the recorded CC50 at 48 h for this entry: COc1ccc([C@H]2O[C@@H](c3cc(OC)c(OC)c(OC)c3)[C@H](C)[C@@H]2C)cc1OC 172 µM

State the recorded CC50 at 48 h for this entry: C=CCc1cc(OC)c(O[C@H](COC(C)=O)[C@H](O)c2cc(OC)c(OC)c(OC)c2)c(OC)c1 194 µM
